Provenance of the data: patent US4694006A

assay: Bioavailability following rectal administration to rabbits (suppositories, micro-enemas); conditions: rabbit, in vivo, 25 mg
readoutType: Fa

Ask: For the compound Oc1ncnc2[nH]ncc12 , give its reported Fa.
Reply: < 2%

###

assay: In-vitro cleavage of allopurinol derivatives to allopurinol in pH 7.4 buffer at 37° C; assay type: physicochemical; settings: read-out: Half-time (t0.5) of the conversion to allopurinol, pH 7.4 buffer (converted)
Please assign no whenever half-life is at or above 40 min, and yes whenever it is below.

Use these answered entries as a reference point.
CCC(=O)n1ncc2c(O)ncnc21 ... yes
CCN(CC)C(=O)CCC(=O)OCn1ncc2c(O)ncnc21 ... no
CCCC(=O)n1ncc2c(O)ncnc21 ... yes
CC(=O)OCn1ncc2c(O)ncnc21 ... no
CC(=O)OCn1cc2c(=O)n(COC(C)=O)cnc2n1 ... no

Attention now turns to another entry.
Ask: Would you kindly verify if half-life of O=C(OCn1ncc2c(=O)[nH]cnc21)c1ccccc1 is strictly less than 40 min?
Reply: no
